FYI, the data here is from patent US8623879B2.

Target: human PDE9A2 (Homo sapiens)
Construct: made in house; host or cells: Sf9 insect cells (infected); crude lysate used as enzyme source
Test: PDE9A2 enzymatic activity assay (scintillation proximity assay, SPA)
Format: biochemical
Settings: reported only as range 1-100 or 101-1200 nanomolar; specific value lies within range; read-out: IC50 within range [nanomolar (nM)]
Item-by-item account of IC50

A selection of reference data follows.
In [3]: df
Out[3]:
                                   compound  measurement_kind             val
0  O=c1[nH]c(CC2CCC2)nc2c1cnn2C1CCOC1 (racemic) [Example 73]              IC50     1 to 100 nM
1  CC(=O)N1CCCC(n2ncc3c(=O)[nH]c(Cc4ccccn4)nc32)C1 (racemic)              IC50  101 to 1200 nM
2     O=c1[nH]c(Cc2ccccc2)nc2c1cnn2C1CCNCC1              IC50  101 to 1200 nM
3    O=c1[nH]c(Cc2ccccc2O)nc2c1cnn2C1CCOCC1              IC50     1 to 100 nM
4  O=C(c1ccccc1)N1CCCC(n2ncc3c(=O)[nH]c(Cc4ccccc4)nc32)C1 (racemic)              IC50     1 to 100 nM

Need IC50, item O=c1[nH]c(CC2CC2)nc2c1cnn2C1CCOCC1
1 to 100 nM

Need IC50, item CC(=O)N1CCC(n2ncc3c(=O)[nH]c(Cc4ccccc4)nc32)CC1
101 to 1200 nM

Need IC50, item CCOc1ccccc1Cc1nc2c(cnn2C2CCCN(C(=O)c3ccccc3)C2)c(=O)[nH]1 (racemic)
101 to 1200 nM

Need IC50, item O=C(c1ccccc1)N1CCC(n2ncc3c(=O)[nH]c(Cc4ccccc4)nc32)C1 (racemic)
101 to 1200 nM

---

Molecular target: human PDE9A2 (Homo sapiens, UniProt O76083)
Construct: made in house; host or cells: Sf9 insect cells (infected); crude lysate used as enzyme source
Sequence (O76083 1-533 isoform O76083-2): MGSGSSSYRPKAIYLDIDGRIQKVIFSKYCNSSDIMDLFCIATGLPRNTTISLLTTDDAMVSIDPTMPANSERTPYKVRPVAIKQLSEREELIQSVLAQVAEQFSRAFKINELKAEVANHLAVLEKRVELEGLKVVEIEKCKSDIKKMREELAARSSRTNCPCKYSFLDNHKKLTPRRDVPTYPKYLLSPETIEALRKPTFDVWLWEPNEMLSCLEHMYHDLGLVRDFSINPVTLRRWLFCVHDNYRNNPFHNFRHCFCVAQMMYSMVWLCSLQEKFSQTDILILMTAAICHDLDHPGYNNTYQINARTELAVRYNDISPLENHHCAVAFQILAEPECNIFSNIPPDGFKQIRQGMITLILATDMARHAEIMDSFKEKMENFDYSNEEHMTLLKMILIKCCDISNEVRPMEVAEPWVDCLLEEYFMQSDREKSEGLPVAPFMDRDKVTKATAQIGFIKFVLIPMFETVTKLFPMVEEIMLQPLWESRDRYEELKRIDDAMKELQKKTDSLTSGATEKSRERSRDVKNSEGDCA
Test: PDE9A2 enzymatic activity assay (scintillation proximity assay, SPA)
Type: biochemical
Settings: reported only as range 1-100 or 101-1200 nanomolar; specific value lies within range; read-out: IC50 within range [nanomolar (nM)]
Item-by-item account of IC50

>>> print(df.to_string())
                                   compound             val
0  O=c1[nH]c(CC2CC2)nc2c1cnn2C1CC[S+]([O-])CC1 (stereo not shown) [Example 236]  101 to 1200 nM

Need IC50, item O=c1[nH]c(Cc2ccc(F)cc2)nc2c1cnn2C1CCOC1 (racemic) [Example 79]
1 to 100 nM

---

Biological target: human PDE9A2 (Homo sapiens)
Construct: made in house; host or cells: Sf9 insect cells (infected); crude lysate used as enzyme source
Assay: PDE9A2 enzymatic activity assay (scintillation proximity assay, SPA)
Format: biochemical
Conditions: read-out: % inhibition of PDE9A2 (at 10 micromolar concentration), 10 micromolar concentration; values above 100% adjusted to 100%
Measurement Kind: inhibition at 10 µM (%)

>>> df
                                    compound  val
 0  O=c1[nH]c(Cc2cc(Cl)cc(Cl)c2)nc2c1cnn2C1CCOCC1   99
 1  CC(=O)N1CCCC(n2ncc3c(=O)[nH]c(Cc4ccccc4OC(F)(F)F)nc32)C1 (racemic)   96
 2  O=c1[nH]c(Cc2cc(OC(F)(F)F)ccc2F)nc2c1cnn2C1CCOCC1   97
 3  CN1CCCC(n2ncc3c(=O)[nH]c(Cc4ccccc4OC(F)(F)F)nc32)C1 (racemic)   89
 4  CCC(C)Cc1nc2c(cnn2C2CCCOC2)c(=O)[nH]1 (mixture of isomers)   98
 5  CC(C)(C)OC(=O)N1CCC(n2ncc3c(=O)[nH]c(CC4CCC4)nc32)C1 (racemic)   86
 6  O=c1[nH]c(Cc2cccc(C(F)(F)F)c2)nc2c1cnn2C1CCOCC1   99
 7  C=Cc1cc(OC)ccc1Cc1nc2c(cnn2C2CCOCC2)c(=O)[nH]1   98
 8  CC[C@H](C)Cc1nc2c(cnn2C2CCOCC2)c(=O)[nH]1   99
 9  O=c1[nH]c(Cc2ccccc2OCC2CC2)nc2c1cnn2C1CCOCC1   97
10  CC(C)Cc1nc2c(cnn2C2CCCCO2)c(=O)[nH]1 (racemic)   91
11  CCOc1ccccc1Cc1nc2c(cnn2C2CCOC(C)(C)C2)c(=O)[nH]1 (racemic)   84
12  CC(=O)N1CCC(n2ncc3c(=O)[nH]c(Cc4ccccc4)nc32)CC1   93
13  O=c1[nH]c(Cc2ccccc2)nc2c1cnn2C1CCCNC1 (racemic)   91
14  CC(=O)N1CCCC(n2ncc3c(=O)[nH]c(CC4CCCC4)nc32)C1 (racemic)   97
15      O=c1[nH]c(Cn2cccn2)nc2c1cnn2C1CCOCC1   91
16  COc1ccccc1Cc1nc2c(cnn2C2CCN(C(=O)c3ccccc3)C2)c(=O)[nH]1 (racemic)   75

---

Target: human PDE9A2 (Homo sapiens, UniProt O76083)
Construct: made in house; host or cells: Sf9 insect cells (infected); crude lysate used as enzyme source
Assay: PDE9A2 enzymatic activity assay (scintillation proximity assay, SPA)
Format: biochemical
Details: reported only as range 1-100 or 101-1200 nanomolar; specific value lies within range; read-out: IC50 within range [nanomolar (nM)]
Measurement Kind: IC50

A selection of reference data follows.
In [3]: df
Out[3]:
                                   compound                              study_system  measurement_kind             val
0  Cc1cccnc1Cc1nc2c(cnn2C2CCOCC2)c(=O)[nH]1 [Example 56]  human PDE9A2 (Homo sapiens, UniProt O76083)              IC50     1 to 100 nM
1  O=c1[nH]c(Cc2ncccn2)nc2c1cnn2C1CCOCC1 [Example 66]  human PDE9A2 (Homo sapiens, UniProt O76083)              IC50  101 to 1200 nM
2  O=c1[nH]c(CC2CCCC2)nc2c1cnn2C1CCNC1 (racemic) [Example 194]  human PDE9A2 (Homo sapiens, UniProt O76083)              IC50  101 to 1200 nM
3  O=c1[nH]c(Cc2ccccc2OCC2CC2)nc2c1cnn2C1CCOCC1 [Example 55]  human PDE9A2 (Homo sapiens, UniProt O76083)              IC50     1 to 100 nM
4  O=c1[nH]c(Cc2ccccc2O[C@H]2CCOC2)nc2c1cnn2C1CCOCC1 [Example 58]  human PDE9A2 (Homo sapiens, UniProt O76083)              IC50     1 to 100 nM
5  N#Cc1ccccc1Cc1nc2c(cnn2C2CCCOC2)c(=O)[nH]1 (racemic) [Example 126]  human PDE9A2 (Homo sapiens, UniProt O76083)              IC50     1 to 100 nM

Need IC50, item CCCCc1nc2c(cnn2C2CCOCC2)c(=O)[nH]1 [Example 8]
1 to 100 nM

Need IC50, item O=C(Oc1ccc(F)cc1)N1CCCC(n2ncc3c(=O)[nH]c(CC4CCCC4)nc32)C1 (racemic) [Example 162]
1 to 100 nM

Need IC50, item CCC(CC)Cc1nc2c(cnn2C2CCCOC2)c(=O)[nH]1 (racemic) [Example 130]
1 to 100 nM

---

Item-by-item account of IC50
Biological target: human PDE9A2 (Homo sapiens)
Construct: made in house; host or cells: Sf9 insect cells (infected); crude lysate used as enzyme source
Experiment: PDE9A2 enzymatic activity assay (scintillation proximity assay, SPA)
Assay type: biochemical
Settings: reported only as range 1-100 or 101-1200 nanomolar; specific value lies within range; read-out: IC50 within range [nanomolar (nM)]

                                   molecule  measurement_kind             val
0  CC(=O)N1CCC(n2ncc3c(=O)[nH]c(Cc4ccccc4OC(F)(F)F)nc32)C1 (racemic) [Example 164]              IC50  101 to 1200 nM
1  O=c1[nH]c(Cc2ccccn2)nc2c1cnn2C1CCOCC1 [Example 51]              IC50     1 to 100 nM
2  CC(Cc1nc2c(cnn2C2CCOCC2)c(=O)[nH]1)C(F)(F)F (single isomer, unassigned) [Example 131]              IC50     1 to 100 nM
3  CCC(C)Cc1nc2c(cnn2C2CCCOC2)c(=O)[nH]1 (mixture of isomers) [Example 95]              IC50     1 to 100 nM
4  CC(C)Cc1nc2c(cnn2C2CCOC(C)(C)C2)c(=O)[nH]1 (racemic) [Example 106]              IC50  101 to 1200 nM
5  O=c1[nH]c(Cc2ccccc2Br)nc2c1cnn2C1CCOCC1 [Example 5]              IC50     1 to 100 nM
6  CCC(Cc1nc2c(cnn2C2CCCN(C(=O)OC(C)(C)C)C2)c(=O)[nH]1)C(F)(F)F (racemic) [Example 21]              IC50  101 to 1200 nM
7  COc1ccccc1Cc1nc2c(cnn2C2CCOCC2)c(=O)[nH]1 [Example 49]              IC50     1 to 100 nM

Need IC50, item N#Cc1ccccc1Cc1nc2c(cnn2C2CCOC2)c(=O)[nH]1 (racemic) [Example 88]
1 to 100 nM

Need IC50, item CC1CC(n2ncc3c(=O)[nH]c(CC4CCC4)nc32)CCO1 (racemic) [Example 120]
1 to 100 nM

Need IC50, item CN1CCCC(n2ncc3c(=O)[nH]c(Cc4ccccc4F)nc32)C1 (racemic) [Example 217]
101 to 1200 nM

Need IC50, item O=C(c1ccccc1)N1CCC(n2ncc3c(=O)[nH]c(CC4CCC4)nc32)C1 (racemic) [Example 171]
101 to 1200 nM

Need IC50, item O=c1[nH]c(Cc2ccccc2C(F)(F)F)nc2c1cnn2C1CCCOC1 (racemic) [Example 97]
1 to 100 nM

Need IC50, item O=c1[nH]c(Cc2ccccn2)nc2c1cnn2C1CCCOC1 (racemic) [Example 94]
101 to 1200 nM

Need IC50, item COC(=O)N1CCCC(n2ncc3c(=O)[nH]c(Cc4ccccc4OC(F)(F)F)nc32)C1 (racemic) [Example 156]
1 to 100 nM

Need IC50, item O=c1[nH]c(Cc2ccccc2)nc2c1cnn2C1CCCNC1 (racemic) [Example 197]
101 to 1200 nM

Need IC50, item O=c1[nH]c(Cc2cccc(C(F)(F)F)c2)nc2c1cnn2C1CCCCO1 (racemic) [Example 147-3]
1 to 100 nM

Need IC50, item O=c1[nH]c(Cc2cccc(C(F)(F)F)c2)nc2c1cnn2C1CCOCC1 [Example 44]
1 to 100 nM

Need IC50, item CC(c1ccccc1)c1nc2c(cnn2C2CCOCC2)c(=O)[nH]1 (racemic) [Example 14]
101 to 1200 nM

Need IC50, item COc1ccccc1Cc1nc2c(cnn2C2CCN(C(C)=O)C2)c(=O)[nH]1 (racemic) [Example 168]
101 to 1200 nM

Need IC50, item O=c1[nH]c(Cc2ccccc2C(F)(F)F)nc2c1cnn2C1CCCCO1 (racemic) [Example 147-1]
101 to 1200 nM

Need IC50, item CCC(Cc1nc2c(cnn2C2CCN(C)C2)c(=O)[nH]1)C(F)(F)F (mixture of isomers) [Example 213]
101 to 1200 nM

Need IC50, item CC(C)Cc1nc2c(cnn2C2CCOC2)c(=O)[nH]1 (single isomer, unassigned) [Example 132-4]
1 to 100 nM

Need IC50, item O=c1[nH]c(CC2CCCCC2)nc2c1cnn2C1CCOCC1 [Example 144]
1 to 100 nM

Need IC50, item O=c1[nH]c(Cc2ccc(F)c(Br)c2)nc2c1cnn2C1CCOCC1 [Example 136]
1 to 100 nM

Need IC50, item O=c1[nH]c(Cc2ccc(F)c(Cl)c2)nc2c1cnn2C1CCOCC1 [Example 137]
1 to 100 nM

Need IC50, item O=c1[nH]c(Cc2ccccc2OC2CCCC2)nc2c1cnn2C1CCOCC1 [Example 125]
1 to 100 nM

Need IC50, item CC(C)(C)OC(=O)N1CCCC(n2ncc3c(=O)[nH]c(Cc4ccccc4)nc32)C1 (racemic) [Example 18]
1 to 100 nM

Need IC50, item O=c1[nH]c(C(F)(F)c2ccccc2)nc2c1cnn2C1CCOCC1 [Example 13]
101 to 1200 nM

Need IC50, item O=c1[nH]c(CC2CC2)nc2c1cnn2C1CCCOC1 (racemic) [Example 99]
1 to 100 nM
